Activity calls are given as the source filed them.
Reported Kd for target or system Serine/threonine-protein kinase PLK1 (Homo sapiens), by entry. Also: in the data inactive means no Kd found up to 30 µM.

Below are worked cases with known answers.
{"Structure String": "FC(F)(F)c1ccc(/C=C/c2nc(COc3ccc(CCCCn4ccnn4)cc3)co2)cc1", "Parameter": "Kd", "Experimental Value": "> 30 µM (inactive)"}
{"Structure String": "Cc1cccc(-c2nn3c(c2-c2ccnc4ccc(C(N)=O)cc24)CCC3)n1", "Parameter": "Kd", "Experimental Value": "> 30 µM (inactive)"}
{"Structure String": "CNC(=O)c1cc(Oc2ccc(NC(=O)Nc3cc(C(C)(C)C)nn3-c3ccc4ncccc4c3)c(F)c2)ccn1", "Parameter": "Kd", "Experimental Value": "> 30 µM (inactive)"}
{"Structure String": "O=C(Cc1ccc(-c2ccc(OCCN3CCOCC3)cc2)cn1)NCc1ccccc1", "Parameter": "Kd", "Experimental Value": "> 30 µM (inactive)"}
{"Structure String": "Cc1cc(C(=O)NOCCO)c(Nc2ccc(I)cc2F)n(C)c1=O", "Parameter": "Kd", "Experimental Value": "> 30 µM (inactive)"}

-- ask Give Kd for CC(C)c1cc(CNc2nc(Nc3cc(C4CC4)[nH]n3)cc(N3CCN(C)CC3)n2)on1
-- reply > 30 µM (inactive)

-- ask # return recorded Kd for entry COCC(=O)NC/C=C/c1ccc2ncnc(Nc3ccc(Oc4ccc(C)nc4)c(C)c3)c2c1
-- reply > 30 µM (inactive)

-- ask Indicate the recorded Kd value for this compound: C=CC(=O)N1CCC[C@H](n2c(=O)n(-c3ccc(Oc4ccccc4)cc3)c3c(N)ncnc32)C1
-- reply > 30 µM (inactive)

-- ask For the compound CC(C)(C)c1nc(-c2cccc(NS(=O)(=O)c3c(F)cccc3F)c2F)c(-c2ccnc(N)n2)s1 , give its measured Kd value.
-- reply > 30 µM (inactive)

-- ask Report Kd, nothing else, for this compound: O=C(Nc1c[nH]nc1-c1nc2cc(CN3CCOCC3)ccc2[nH]1)NC1CC1
-- reply > 30 µM (inactive)

* * *

Activity calls are given as the source filed them.
LIM domain kinase 2 (Homo sapiens, UniProt P53671): reported Kd for various compounds. Also: in the data inactive means no Kd found up to 30 µM.
Sequence (P53671 whole entry, the tested form may be a part): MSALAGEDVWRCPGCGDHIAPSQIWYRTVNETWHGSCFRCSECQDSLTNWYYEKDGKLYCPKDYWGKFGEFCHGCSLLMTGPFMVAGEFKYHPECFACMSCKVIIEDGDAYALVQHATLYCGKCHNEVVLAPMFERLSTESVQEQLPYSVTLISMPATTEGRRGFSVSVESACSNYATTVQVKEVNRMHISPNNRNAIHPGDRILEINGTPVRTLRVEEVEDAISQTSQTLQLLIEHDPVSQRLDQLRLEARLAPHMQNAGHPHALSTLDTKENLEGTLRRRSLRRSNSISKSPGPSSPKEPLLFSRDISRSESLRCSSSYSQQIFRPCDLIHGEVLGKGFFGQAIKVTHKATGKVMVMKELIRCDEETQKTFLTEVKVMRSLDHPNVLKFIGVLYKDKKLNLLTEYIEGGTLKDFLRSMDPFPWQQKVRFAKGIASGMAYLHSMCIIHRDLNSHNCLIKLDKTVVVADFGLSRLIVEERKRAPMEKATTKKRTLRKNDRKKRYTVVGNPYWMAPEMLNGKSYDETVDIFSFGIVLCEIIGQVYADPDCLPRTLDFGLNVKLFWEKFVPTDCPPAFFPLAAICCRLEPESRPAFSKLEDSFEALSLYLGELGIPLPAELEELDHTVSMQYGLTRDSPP

Consider the reported Kd for these compounds:
{"Compound": "CC(=O)c1cnc2ccc(-c3cc(Cl)c(O)c(Cl)c3)nc2c1N[C@H]1CC[C@H](CN(C)C)CC1", "Kd": "> 30 µM (inactive)"}
{"Compound": "COc1cc2ncnc(Oc3cccc(NC(=O)Nc4cc(C(C)(C)C(F)(F)F)on4)c3)c2cc1OC [CEP-32496]", "Kd": "> 30 µM (inactive)"}
{"Compound": "FC(F)(F)c1ccc(/C=C/c2nc(COc3ccc(CCCCn4ccnn4)cc3)co2)cc1 [MUBRITINIB]", "Kd": "> 30 µM (inactive)"}

-- ask Assign Kd to the following record: O=C1NC(=O)[C@@H](c2cn3c4c(cccc24)CCC3)[C@@H]1c1c[nH]c2ccccc12 [TIVANTINIB]
-- reply > 30 µM (inactive)

-- ask Annotate the compound COCc1c(-c2ccc(NC(=O)Nc3cc(C(F)(F)F)ccc3F)c(F)c2)c2c(N)ncnn2c1CN1CCOCC1 with its measured Kd.
-- reply > 30 µM (inactive)

-- ask Provide measured Kd value, entry: Cc1nc2cc(-c3nn(C(C)C)c4ncnc(N)c34)ccc2o1
-- reply > 30 µM (inactive)

-- ask Identify measured Kd corresponding to CCS(=O)(=O)c1cccc(-c2cc(C(=O)NC3CCN(C)CC3)c(C)c3[nH]c4ncc(C)cc4c23)c1 [TAK-901]
-- reply > 30 µM (inactive)

-- ask Supply Kd value. Item: O=C(Nc1cc(C(F)(F)F)cc(C(F)(F)F)c1)c1cc(Cl)ccc1O [IMD-0354]
-- reply > 30 µM (inactive)

-- ask Provide Kd value for the following compound: CN1CCN(CCOc2cc(OC3CCOCC3)c3c(Nc4c(Cl)ccc5c4OCO5)ncnc3c2)CC1 [SARACATINIB]
-- reply > 30 µM (inactive)

-- ask Please give the documented Kd of Cc1[nH]c(/C=C2\C(=O)Nc3ccccc32)c(C)c1CCC(=O)O [ORANTINIB]
-- reply > 30 µM (inactive)

-- ask Identify Kd associated with the compound Cn1cc(-c2cnc3ccc4ccc(CS(=O)(=O)NCc5ccccn5)cc4c(=O)c3c2)cn1 [MK-8033]
-- reply > 30 µM (inactive)

-- ask Kindly indicate its recorded Kd. Item: CO[C@H]1C[C@@H]2CC[C@@H](C)[C@@](O)(O2)C(=O)C(=O)N2CCCC[C@H]2C(=O)O[C@H]([C@H](C)C[C@@H]2CC[C@@H](OP(C)(C)=O)[C@H](OC)C2)CC(=O)[C@H](C)/C=C(\C)[C@@H](O)[C@@H](OC)C(=O)[C@H](C)C[C@H](C)/C=C/C=C/C=C/1C [RIDAFOROLIMUS]
-- reply > 30 µM (inactive)

-- ask Report Kd, nothing else, for this compound: CNC(=O)c1cccc2cc(Oc3ccnc4cc(OCC5(N)CC5)c(OC)cc34)ccc12 [LUCITANIB]
-- reply > 30 µM (inactive)

-- ask Answer with reported Kd of CN1C/C=C/CCOc2cccc(c2)-c2ccnc(n2)Nc2cccc(c2)C1 [ZOTIRACICLIB]
-- reply > 30 µM (inactive)

-- ask Fill in Kd for record COc1ncc(-c2ccc3nccc(-c4ccnnc4)c3c2)cc1NS(=O)(=O)c1ccc(F)cc1F [OMIPALISIB]
-- reply > 30 µM (inactive)

-- ask For the compound Cc1csc(-c2nnc(Nc3ccc(Oc4ncccc4-c4ccnc(N)n4)cc3)c3ccccc23)c1 [AMG-900] , give its measured Kd value.
-- reply > 30 µM (inactive)

-- ask Give Kd for N#CC1(c2ccc(NC(=O)c3cccnc3NCc3ccncc3)cc2)CCCC1 [RIVOCERANIB]
-- reply > 30 µM (inactive)

* * *

# Assayed System: Calcium/calmodulin-dependent protein kinase type II subunit gamma (Homo sapiens, UniProt Q13555); also: in the data inactive means no Kd found up to 30 µM
# Sequence (Q13555 whole entry): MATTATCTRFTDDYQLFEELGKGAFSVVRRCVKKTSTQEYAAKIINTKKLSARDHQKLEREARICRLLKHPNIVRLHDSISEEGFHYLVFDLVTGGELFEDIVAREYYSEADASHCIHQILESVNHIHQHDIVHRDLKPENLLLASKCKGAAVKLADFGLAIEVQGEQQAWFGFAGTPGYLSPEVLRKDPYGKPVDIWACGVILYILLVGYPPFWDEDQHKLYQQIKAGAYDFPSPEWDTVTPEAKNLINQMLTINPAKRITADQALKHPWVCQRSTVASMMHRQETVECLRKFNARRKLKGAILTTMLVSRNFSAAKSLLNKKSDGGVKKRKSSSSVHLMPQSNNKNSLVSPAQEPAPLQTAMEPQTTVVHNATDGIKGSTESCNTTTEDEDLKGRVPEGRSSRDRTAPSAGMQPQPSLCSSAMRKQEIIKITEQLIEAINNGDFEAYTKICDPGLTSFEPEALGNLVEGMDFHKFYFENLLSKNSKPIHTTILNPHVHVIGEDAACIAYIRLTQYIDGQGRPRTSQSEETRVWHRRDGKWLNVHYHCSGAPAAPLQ
Where a name gives a salt, the structure may show the parent alone. Active and inactive are the calls of the source.
Use one of these outcomes when replying: Y (active), N (inactive)

// below: answered compounds
{"Compound": "CCS(=O)(=O)N1CCN(c2ccc(Nc3ncc(C(N)=O)c(NC4CC4)n3)cc2)CC1 [Cerdulatinib Hydrochloride]", "Assigned Category": "N"}
{"Compound": "CCn1cc(-c2ccnc3[nH]c(-c4cccc(CN(C)C)c4)cc23)c(-c2ccc(NC(=O)N(C)C)cc2)n1", "Assigned Category": "N"}
{"Compound": "CCNC(=O)C#Cc1ccc2c(c1)NC(=O)/C2=C(\\Nc1ccc(CN(C)C)cc1)c1ccccc1", "Assigned Category": "N"}
{"Compound": "CNC(=O)c1cccc2cc(Oc3ccnc4cc(OCC5(N)CC5)c(OC)cc34)ccc12", "Assigned Category": "N"}
{"Compound": "Cc1nc(NC(=O)N2CCC[C@H]2C(N)=O)sc1-c1ccnc(C(C)(C)C(F)(F)F)c1", "Assigned Category": "N"}
{"Compound": "CO[C@H]1C[C@@H]2CC[C@@H](C)[C@@](O)(O2)C(=O)C(=O)N2CCCC[C@H]2C(=O)O[C@H]([C@H](C)C[C@@H]2CC[C@@H](OC(=O)C(C)(CO)CO)[C@H](OC)C2)CC(=O)[C@H](C)/C=C(\\C)[C@@H](O)[C@@H](OC)C(=O)[C@H](C)C[C@H](C)/C=C/C=C/C=C/1C", "Assigned Category": "N"}

-- ask Short answer needed: outcome of this test for COc1cc2ncnc(Oc3cccc(NC(=O)Nc4cc(C(C)(C)C(F)(F)F)on4)c3)c2cc1OC ?
-- reply N

-- ask Check the results log: what was the call for CC(=O)c1cnc2ccc(-c3cc(Cl)c(O)c(Cl)c3)nc2c1N[C@H]1CC[C@H](CN(C)C)CC1 ?
-- reply N

-- ask So what was the verdict on CO[C@H]1C[C@@H]2CC[C@@H](C)[C@@](O)(O2)C(=O)C(=O)N2CCCC[C@H]2C(=O)O[C@H]([C@H](C)C[C@@H]2CC[C@@H](OP(C)(C)=O)[C@H](OC)C2)CC(=O)[C@H](C)/C=C(\C)[C@@H](O)[C@@H](OC)C(=O)[C@H](C)C[C@H](C)/C=C/C=C/C=C/1C in this test?
-- reply N

-- ask Please share the test call associated with Nc1ncnc2c1c(-c1cccc(OCc3ccccc3)c1)cn2[C@H]1C[C@@H](CN2CCC2)C1 .
-- reply N

-- ask What outcome does the record of this test show for N#CC[C@H](C1CCCC1)n1cc(-c2ncnc3[nH]ccc23)cn1 ?
-- reply Y

-- ask Query: recorded result category for O=C(Nc1nc2cccc(-c3ccc(CN4CCS(=O)(=O)CC4)cc3)n2n1)C1CC1 in this test
-- reply N

-- ask Please state the recorded outcome for this compound: CN(C[C@@H]1COCCO1)S(=O)(=O)Nc1ccc2ccc3ncc(-c4cnn(C)c4)cc3c(=O)c2c1
-- reply N
